pKi: −log10 of the molar value.
What follows is a collection of pKi values obtained with human A2AAR (Homo sapiens, UniProt P29274).
Sequence (P29274 whole entry): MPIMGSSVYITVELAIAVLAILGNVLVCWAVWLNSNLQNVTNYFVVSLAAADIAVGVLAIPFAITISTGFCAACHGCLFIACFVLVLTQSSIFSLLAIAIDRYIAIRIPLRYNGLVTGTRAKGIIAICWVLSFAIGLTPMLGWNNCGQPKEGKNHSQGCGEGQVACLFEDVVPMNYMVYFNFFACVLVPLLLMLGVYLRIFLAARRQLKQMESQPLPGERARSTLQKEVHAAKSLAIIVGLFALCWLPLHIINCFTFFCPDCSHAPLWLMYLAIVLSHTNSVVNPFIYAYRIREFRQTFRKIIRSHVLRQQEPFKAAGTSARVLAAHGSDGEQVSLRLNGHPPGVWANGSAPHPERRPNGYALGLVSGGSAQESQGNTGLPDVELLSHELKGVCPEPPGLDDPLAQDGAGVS
readout-label: pKi

                                   compound  recorded_value
0  CC1=C(C(=O)OC(C)C)C(c2ccco2)n2c(nc3ccccc32)N1Cc1ccccc1F (centres unmarked) [ISAM-R56A]          < 6.00
1  CC1=C(C(=O)OC(C)C)C(c2ccco2)N2C(=N1)N(Cc1ccccc1F)c1ccccc12 (centres unmarked) [ISAM-R56B]          < 6.00

* * *

What follows is a collection of pKi values obtained with human A1AR (Homo sapiens).
Sequence (P30542 whole entry): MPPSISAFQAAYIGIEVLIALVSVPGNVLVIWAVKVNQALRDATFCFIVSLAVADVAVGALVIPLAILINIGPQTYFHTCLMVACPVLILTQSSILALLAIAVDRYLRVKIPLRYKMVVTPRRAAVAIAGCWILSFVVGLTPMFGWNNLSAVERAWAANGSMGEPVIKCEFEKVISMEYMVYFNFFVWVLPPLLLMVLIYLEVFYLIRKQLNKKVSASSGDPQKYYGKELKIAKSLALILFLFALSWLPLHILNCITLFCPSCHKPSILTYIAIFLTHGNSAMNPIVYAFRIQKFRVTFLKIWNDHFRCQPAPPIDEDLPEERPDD
pKi: −log10 of the molar value.
readout-label: pKi

>>> print(df.to_string())
                                   compound  recorded_value
0  CC1=C(C(=O)OC(C)C)C(c2ccco2)n2c(nc3ccccc32)N1Cc1ccccc1F (centres unmarked) [ISAM-R56A]          < 6.00
1  CC1=C(C(=O)OC(C)C)C(c2ccco2)N2C(=N1)N(Cc1ccccc1F)c1ccccc12 (centres unmarked) [ISAM-R56B]          < 6.00
